Catalogue of IC50 values
- assaySystem: rsE-selectin (Homo sapiens, UniProt P16581)
- Sequence (P16581 22-556 limits assumed): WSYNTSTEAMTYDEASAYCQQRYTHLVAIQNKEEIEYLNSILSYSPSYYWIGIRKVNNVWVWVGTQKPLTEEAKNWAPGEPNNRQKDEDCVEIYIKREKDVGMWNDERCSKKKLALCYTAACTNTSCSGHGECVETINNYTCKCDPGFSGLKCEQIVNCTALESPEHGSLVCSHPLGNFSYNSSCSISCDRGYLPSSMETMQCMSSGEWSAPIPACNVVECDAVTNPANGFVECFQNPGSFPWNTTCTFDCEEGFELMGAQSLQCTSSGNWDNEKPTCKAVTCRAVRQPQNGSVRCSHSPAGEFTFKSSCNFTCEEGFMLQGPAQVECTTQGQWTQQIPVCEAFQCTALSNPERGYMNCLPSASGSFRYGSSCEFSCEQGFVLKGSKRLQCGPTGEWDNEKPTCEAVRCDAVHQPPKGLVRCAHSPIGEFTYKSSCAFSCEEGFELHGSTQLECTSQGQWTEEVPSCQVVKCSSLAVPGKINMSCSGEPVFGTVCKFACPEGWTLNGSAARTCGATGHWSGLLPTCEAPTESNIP
- procedureSummary: Inhibition of adhesion of HL-60 cells to plate-coated rsE-selectin (Experiment 2)
- measurementSetup: 50% inhibition concentration of adhesion of rsE-selectin to HL-60, from inhibition curves; medium-only well = 100%
quantityMeasured: IC50 (µM)

• CCCCCCCCCOc1cc(CCCO[C@@H]2O[C@H](CO)[C@@H](O[C@@H]3O[C@H](CO)[C@H](O)[C@H](O[C@]4(C(=O)O)C[C@H](O)[C@@H](NC(C)=O)[C@H]([C@H](O)[C@H](O)CO)O4)[C@H]3O)[C@H](O[C@@H]3O[C@@H](C)[C@@H](O)[C@@H](O)[C@@H]3O)[C@H]2NC(=O)c2ccc3ccccc3c2)cc(OC)c1OC [Compound 39] = 150
• COc1cc(CCCO[C@@H]2O[C@H](CO)[C@@H](O[C@@H]3O[C@H](CO)[C@H](O)[C@H](O[C@]4(C(=O)O)C[C@H](O)[C@@H](NC(C)=O)[C@H]([C@H](O)[C@H](O)CO)O4)[C@H]3O)[C@H](O[C@@H]3O[C@@H](C)[C@@H](O)[C@@H](O)[C@@H]3O)[C@H]2NC(=O)c2ccc3ccccc3c2)cc(OC)c1OC [Compound 38] = 150
• CCOCCOCCO[C@@H]1O[C@H](CO)[C@@H](O[C@@H]2O[C@H](CO)[C@H](O)[C@H](O[C@]3(C(=O)O)C[C@H](O)[C@@H](NC(C)=O)[C@H]([C@H](O)[C@H](O)CO)O3)[C@H]2O)[C@H](O[C@@H]2O[C@@H](C)[C@@H](O)[C@@H](O)[C@@H]2O)[C@H]1NC(=O)c1ccc2ccccc2c1 [Compound 31] = 110
